# experiment description: Cell Viability - LYMP2-005 (AID 967);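 further: cells exposed to compound for 24 h at 37 °C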
# assay conditions: LYMP2-005 lymphoblastoid cell viability; series mostly up to 92.2 µM
# From the text: NIH Chemical Genomics Center [NCGC] NIH Molecular Libraries Screening Centers Network [MLSCN] National Institutes of Environmental Health Sciences [NIEHS] National Toxicology Program [NTP] We have developed a 1536-well cell-based assay for quantitative high throughput screening (qHTS) against a number of cell lines to determine in vitro cytotoxicity of small molecules. […] 8. Detection; Luminescence; Viewlux plate reader […]
Records with an inconclusive call do not appear. The source made the active and inactive calls. The call rests on the fitted dose curve; in most records, active means well fitted cell-killing curve with a large enough effect; inconclusive means small, poorly fitted or top-dose-only effect, or effect the other way; inactive means no such curve, though single readings can be large or run the other way.
Response enum: yes = active, no = inactive

Some solved cases for reference:
compound="CCCCC(CC)COCCCN (stereo not drawn)" category=no
compound=Cc1ccc(S(N)(=O)=O)cc1 category=no
compound="CCOC(=O)C1OC1c1ccccc1 (stereo not drawn)" category=no
compound=CCCCCCCCOc1ccc(C(=O)O)cc1 category=no
compound=C=CC(=O)OCCCCCCOC(=O)C=C category=yes
compound=O=[N+]([O-])c1ccc(F)cc1F category=no

Which outcome did this test record for the compound CCN(CC)c1ccc2c(C)cc(=O)oc2c1 ? no

Same question for O=[N+]([O-])c1cccc(I)c1 please. no

###

We begin with a simple list: items and their reported activity change, negative = inhibition.
# assay target: Cytochrome P450 1A2 (Homo sapiens) (UniProt P05177)
# Sequence (P05177 whole entry, looked up): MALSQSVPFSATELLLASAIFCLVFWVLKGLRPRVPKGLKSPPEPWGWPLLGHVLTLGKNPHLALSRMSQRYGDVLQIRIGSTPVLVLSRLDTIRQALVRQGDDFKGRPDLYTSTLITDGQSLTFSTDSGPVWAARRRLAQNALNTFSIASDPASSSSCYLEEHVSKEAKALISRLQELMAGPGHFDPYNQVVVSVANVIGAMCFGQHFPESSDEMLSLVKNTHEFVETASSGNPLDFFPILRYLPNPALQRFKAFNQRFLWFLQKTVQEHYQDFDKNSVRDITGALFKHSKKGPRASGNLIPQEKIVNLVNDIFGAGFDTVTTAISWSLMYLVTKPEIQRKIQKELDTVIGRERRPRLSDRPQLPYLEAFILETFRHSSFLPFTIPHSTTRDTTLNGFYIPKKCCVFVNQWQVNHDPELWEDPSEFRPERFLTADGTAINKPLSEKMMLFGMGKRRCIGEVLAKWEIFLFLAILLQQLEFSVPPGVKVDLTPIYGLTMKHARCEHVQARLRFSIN
# experiment description: p450-cyp1a2 (AID 410);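 further: -100% = full effect of reference inhibitor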
# assay conditions: recombinant CYP1A2, luciferin-ME demethylation, luminescence; series mostly up to 11.4 µM
Records with an inconclusive call do not appear. The source made the active and inactive calls. Calls come from the whole dose curve.

Consider the worked cases shown below.
compound="CC12CC[C@@H]3c4ccc(OP(=O)(O)O)cc4CCC3C1CCC2=O (stereo partly specified)" measured_endpoint="activity change, negative = inhibition" recorded_value="-13.4% [at 2.29 µM] (inactive)"
compound=FC(F)(F)c1nc(SCc2ccc(Cl)cc2)n[nH]1 measured_endpoint="activity change, negative = inhibition" recorded_value="-18.8% [at 2.29 µM] (inactive)"
compound=Cn1c(=O)c2[nH]c(COCc3nc4c([nH]3)c(=O)n(C)c(=O)n4C)nc2n(C)c1=O measured_endpoint="activity change, negative = inhibition" recorded_value="4.5% [at 2.29 µM] (inactive)"

I'd like to know its activity change, negative = inhibition. The compound in question is ClC(Cl)(Cl)C(N1CCN(c2ccccc2)CC1)N1CCN(c2ccccc2)CC1 -14.9% [at 2.29 µM] (inactive)

Another: C[N+]1(CCCC[N+]2(C)CCCCCCC2)CCCCCCC1 -10.4% [at 2.29 µM] (inactive)

Follow-up entry: Cc1cc(Cl)nc2ccc(Cc3ccc4nc(Cl)cc(C)c4c3)cc12 -13.2% [at 2.29 µM] (inactive)

###

# experiment description: Cell Viability - Jurkat (AID 426);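 further: potency means the concentration at half of the fitted maximal effect; cells exposed to compound for 40 hours at 37 °C before ATP read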
# assay conditions: qHTS
Records with an inconclusive call do not appear. Calls of active or inactive are those of the source.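 Rule for the calls: active = dose-dependent loss of cell ATP signal giving a full or clear fitted curve, ranked by lower potency value; inconclusive = weak partial curve or response only at the top dose; inactive = no loss of viability signal.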
In this exercise, the only acceptable responses are active, inactive

compound=Oc1c(Cl)cc(Cl)c(Cl)c1Cl category=active
compound=O=C1c2ccccc2C(=O)C1(O)O category=active
compound=CC(C)S category=inactive
compound=Cc1cc(=O)oc2cc(O)cc(O)c12 category=inactive
compound=Nc1ccc(N=Nc2ccccc2)c(N)c1 category=inactive

Lab log entry: CCC(Cl)CC(Cl)C(Cl)C(Cl)C(Cl)C(C)Cl (configuration not stated) — outcome as called in the assay? inactive

Another compound to check: C[C@@H]1CC2(OC(O)[C@]3(C)O[C@H]23)O[C@H]2C[C@@]3(C)[C@@H]4CC[C@H]5C(C)(C)C(O[C@@H]6OC[C@@H](O)[C@H](O)[C@H]6O)CC[C@@]56C[C@@]46CC[C@]3(C)[C@@H]12 (some centres not stated) inactive

// query: O=C(Cl)c1ccc([N+](=O)[O-])cc1 inactive

Entry to check: c1cc2c3c(c1)ccc1cccc(c13)C2 inactive

Input c1ccncc1 inactive

// same read-out, input: COc1ccc(C(=O)Nc2ccccc2)cc1[N+](=O)[O-] inactive

What would you report for CCc1ccc(C(c2ccc(CC)cc2)C(Cl)Cl)cc1 ? inactive

###

compounds and their reported activation
# experiment description: qHTS Assay for Identification of Small Molecule Agonists for Hypoxia Response Element Signaling Pathway (AID 914); further: % of control where 0% means no effect
# assay conditions: ME-180 (cervical carcinoma) HRE-bla reporter, beta-lactamase ratio, CoCl2, 17 h; stronger effect = higher value
Results filed as inconclusive are left out.
The reply should be a number in %, with the unit left off.

query_smiles=N=C(N)SCc1cc(Cl)cc(Cl)c1O recorded_value=-24.5

Field request: activation | item: Cc1cccc(C)c1OC[C@@H](N)C(C)C -2.64

Lookup CCOC(=O)C1=C(C)NC(=O)N[C@@H]1c1coc2cc(C)cc(C)c2c1=O 23.8

Same lookup for Nc1nc(-c2cccc([N+](=O)[O-])c2)cc(-c2cc(-c3cccc([N+](=O)[O-])c3)nc(N)n2)n1 , please. 18.2

Try this compound next: C/C(=N/S(=O)(=O)c1ccc(Cl)c(Cl)c1)OCC(C)(C)C 8.96

Then this compound: Cc1c(S(=O)(=O)O)ccc(N=Nc2c(O)c(C(=O)O)cc3ccccc23)c1Cl -17.8

Same question, Cc1cc(=O)oc2cc(O)c(CN(C)CC(=O)O)cc12 this time 2.1

Next entry: CC(=O)O[C@]1(C)N=NC2(CCCCC2)O1 14.3

What would you report for CC(C)(C)c1ccc(O)c(CN(Cc2c(O)ccc3ccccc23)C2CCCCC2)c1 ? 2.73

O=C(O)C1(Nc2ccc(Cl)cc2)CCCC1 ? 0.664

Lookup FC(F)(F)c1nc(SCc2ccc(Cl)cc2)n[nH]1 8.01

Same question for NS(=O)(=O)c1cc2c(cc1Cl)N[C@H](Cc1ccccc1)NS2(=O)=O please. 4.65

What would you report for COc1ccc(/C=C(\C#N)C(N)=O)c(OC)c1 ? -21.9

Another compound: Cc1cc(SCC(=O)c2ccc(Br)cc2)cc(C)[o+]1 15.2

Now consider Cc1ccc(S(=O)(=O)Oc2cc(S(=O)(=O)O)cc3cc(S(=O)(=O)O)cc(N)c23)cc1 and answer again. -7.4

###

# experiment description: qHTS assay for small molecule disruptors of the mitochondrial membrane potential - 1 hr assay (AID 651754); further: on the % scale 0 is the no-effect control and ±100 the full control effect; nearly all actives have a fitted effect of over 35% in size
# assay conditions: series mostly up to 92.2 µM
Inconclusive results are not listed. Calls of active or inactive are those of the source. Calls come from the whole dose curve.
measured endpoint: outcome

Study these solved cases before continuing.
compound=Cc1ccc(N)cc1[N+](=O)[O-] recorded_value=inactive
compound="CC(C)OCC1CO1 (configuration not stated)" recorded_value=inactive
compound=CC(/C=C/C=C(C)/C=C/C(=O)O)=C\C=C\C=C(C)\C=C\C=C(C)\C=C\C(=O)O recorded_value=inactive
compound=Cc1ccc(C(=O)O)cc1[N+](=O)[O-] recorded_value=inactive
compound=C=C(C#N)C(=O)OCC recorded_value=inactive

Report outcome for Cc1c(N)cccc1Cl please. inactive

Try this compound too: CC(C)(C)C(=O)C1C(=O)c2ccccc2C1=O inactive

###

# experiment description: Cell Viability - HUV-EC-C (AID 542);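 further: cells exposed to compound for 40 hours; nearly all actives have a fitted effect of over 35% in size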
# assay conditions: HUV-EC-C endothelial cell viability, qHTS; series mostly up to 92.2 µM
# Source text: NIH Chemical Genomics Center [NCGC] NIH Molecular Libraries Screening Centers Network [MLSCN] National Institutes of Environmental Health Sciences [NIEHS] National Toxicology Program [NTP] We have developed a 1536-well cell-based assay for quantitative high throughput screening (qHTS) against a number of cell lines to determine in vitro cytotoxicity of small molecules. […] 8. Detection; Luminescence; Viewlux plate reader […]
Results filed as inconclusive are left out. Activity calls are given as the source filed them. The call rests on the fitted dose curve; in most records, active means well fitted cell-killing curve with a large enough effect; inconclusive means small, poorly fitted or top-dose-only effect, or effect the other way; inactive means flat fitted curve, though single readings scatter.
Please answer using one outcome listed in active, inactive

Example entries and their recorded answers appear below.
compound="C=CC1CO1 (centres undefined)" category=inactive
compound=O=C(O)c1cc(N=Nc2ccc([N+](=O)[O-])cc2)ccc1O category=inactive
compound=Oc1ccc(O)c2c(O)cccc12 category=inactive
compound="C[C@@H]1CC2(OC(O)[C@]3(C)O[C@H]23)O[C@H]2C[C@@]3(C)[C@@H]4CC[C@H]5C(C)(C)C(O[C@@H]6OC[C@@H](O)[C@H](O)[C@H]6O)CC[C@@]56C[C@@]46CC[C@]3(C)[C@@H]12 (some centres undefined)" category=inactive
compound="CCCCC(CC)COCCCN (centres undefined)" category=inactive
compound="CCCCC(CC)COP(=O)(OCC(CC)CCCC)OCC(CC)CCCC (centres undefined)" category=inactive
compound=CC(=O)c1ccc(Cl)c(Cl)c1Cl category=inactive
compound=c1c[nH]cn1 category=inactive
compound=Oc1c(Cl)cc(Cl)c(Cl)c1Cl category=inactive
compound=COc1ccc(C(=O)Nc2ccccc2)cc1[N+](=O)[O-] category=inactive

Which outcome was entered for the compound Nc1cc(C(=O)O)c(O)c(S(=O)(=O)O)c1 in this test? inactive

For CCCC(=O)OC(=O)CCC then? inactive

What about Cc1ccc(O)c(N)c1 ? inactive

Can you handle Nc1ccccc1O next? inactive

Follow-up item: Oc1cc(Cl)cc(Cl)c1Cl inactive

Try the compound Cc1c(C(=O)O)c(O)cc2c1C(=O)c1c(O)c([C@H]3O[C@H](CO)[C@@H](O)[C@H](O)[C@H]3O)c(O)c(O)c1C2=O active

Another compound to look at: C[Si](C)(C)Cl inactive

Do the same for Nc1ccc(N)c(Cl)c1 please inactive

Subsequent entry: C/C=C1/C(=O)C[C@H]2[C@@H]3CCC4=CC(=O)CC[C@]4(C)[C@H]3CC[C@]12C inactive

Same read-out for COc1ccc([N+](=O)[O-])cc1N ? inactive

Field entry: NC(=O)c1ccc([N+](=O)[O-])cc1 inactive

Same thing, different compound: C/C=C/C=C/C=O inactive

Further, for C=CC(=O)OCCCCCCOC(=O)C=C ? inactive

Input COc1ccc(C)cc1N inactive
